# target.of.assay: DDR2 (Homo sapiens (Human), UniProt Q16832)
# Sequence (Q16832 22-855): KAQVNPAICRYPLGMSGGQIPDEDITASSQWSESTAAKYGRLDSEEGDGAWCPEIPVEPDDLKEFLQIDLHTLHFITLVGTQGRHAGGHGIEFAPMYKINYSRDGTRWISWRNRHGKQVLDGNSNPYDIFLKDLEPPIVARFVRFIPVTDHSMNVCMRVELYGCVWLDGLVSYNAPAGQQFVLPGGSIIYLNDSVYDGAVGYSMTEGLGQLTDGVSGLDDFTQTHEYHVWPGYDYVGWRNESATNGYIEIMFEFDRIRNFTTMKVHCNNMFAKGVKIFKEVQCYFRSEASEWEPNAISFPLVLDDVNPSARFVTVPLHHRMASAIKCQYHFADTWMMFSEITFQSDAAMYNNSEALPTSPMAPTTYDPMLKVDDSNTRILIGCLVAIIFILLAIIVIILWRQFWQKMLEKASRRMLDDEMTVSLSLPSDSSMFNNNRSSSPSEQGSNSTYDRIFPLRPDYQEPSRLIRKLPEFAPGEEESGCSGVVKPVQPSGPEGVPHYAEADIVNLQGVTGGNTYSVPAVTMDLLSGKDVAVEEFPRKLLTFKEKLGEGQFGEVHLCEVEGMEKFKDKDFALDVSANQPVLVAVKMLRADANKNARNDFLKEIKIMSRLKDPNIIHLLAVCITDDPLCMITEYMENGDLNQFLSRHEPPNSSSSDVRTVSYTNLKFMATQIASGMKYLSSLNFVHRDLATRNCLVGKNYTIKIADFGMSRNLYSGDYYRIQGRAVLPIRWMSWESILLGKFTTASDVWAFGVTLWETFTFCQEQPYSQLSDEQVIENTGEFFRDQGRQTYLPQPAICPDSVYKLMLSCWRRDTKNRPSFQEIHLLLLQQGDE
# experiment.summary: DDR2 binding assay (LanthaScreen Europium Kinase Binding assay)
# condition.description: potency class, read-out: Ki DDR2
pKi: −log10 of the molar value.
endpoint.name: pKi

# count of solved cases: 2
INSERT INTO results (line_notation, endpoint_name, result) VALUES
  ('Cn1cc(Nc2ncc(CN3CCc4c(C(=O)Nc5cc(C(C)(C)C)nn5C)csc4C3)cn2)cn1', 'pKi', '> 7.60'),
  ('O=C(Nc1cccc(C(F)(F)F)c1)c1csc2c1CCN(Cc1cncnc1)C2', 'pKi', '> 7.60');

Prompt: # lookup: pKi of `CC(F)(F)c1cccc(NC(=O)c2csc3c2CCN(Cc2cnc(N)nc2)C3)c1`
Response: > 7.60

Prompt: # lookup: pKi of `O=C(Nc1cc(F)cc(C(F)(F)F)c1)c1csc2c1CCN(Cc1cnc(NCCO)nc1)C2`
Response: > 7.60

Prompt: # lookup: pKi of `CC(=O)Nc1ncc(CN2CCc3c(C(=O)Nc4cc(F)cc(C(F)(F)F)c4)csc3C2)cn1`
Response: > 7.60

Prompt: # lookup: pKi of `O=C(Nc1cncc(C(F)(F)F)c1)c1csc2c1CCN(Cc1cncc(F)c1)C2`
Response: > 7.60

Prompt: # lookup: pKi of `O=C(Nc1cc(F)cc(C(F)(F)F)c1)c1csc2c1CCN(Cc1cnc(NC3COC3)nc1)C2`
Response: > 7.60

Prompt: # lookup: pKi of `Cn1nc(NC(=O)c2csc3c2CCN(Cc2cnc(N)nc2)C3)cc1C(C)(C)C`
Response: > 7.60

* * *

# target.of.assay: DDR1 (Homo sapiens (Human))
# experiment.summary: DDR1 binding assay (LanthaScreen Europium Kinase Binding assay)
# condition.description: read-out: DDR1 Ki
endpoint.name: Ki
State the result as a value with its unit after it.

INSERT INTO assay_data (compound, result) VALUES
  ('CN1CCN(Cc2cc(NC(=O)c3csc4c3CCN(c3cncnc3)C4)cc(C(F)(F)F)c2)CC1 [Example C1]', '0.238 µM');

Prompt: # lookup: Ki of Cc1cn(-c2cc(NC(=O)c3cc4c(s3)CN(c3cncnc3)CC4)cc(C(F)(F)F)c2)cn1 [Example C2]
Response: 29 µM

* * *

Entries below carry reported IC50 on DDR1 (Homo sapiens (Human), UniProt Q08345).
Sequence (Q08345 19-913): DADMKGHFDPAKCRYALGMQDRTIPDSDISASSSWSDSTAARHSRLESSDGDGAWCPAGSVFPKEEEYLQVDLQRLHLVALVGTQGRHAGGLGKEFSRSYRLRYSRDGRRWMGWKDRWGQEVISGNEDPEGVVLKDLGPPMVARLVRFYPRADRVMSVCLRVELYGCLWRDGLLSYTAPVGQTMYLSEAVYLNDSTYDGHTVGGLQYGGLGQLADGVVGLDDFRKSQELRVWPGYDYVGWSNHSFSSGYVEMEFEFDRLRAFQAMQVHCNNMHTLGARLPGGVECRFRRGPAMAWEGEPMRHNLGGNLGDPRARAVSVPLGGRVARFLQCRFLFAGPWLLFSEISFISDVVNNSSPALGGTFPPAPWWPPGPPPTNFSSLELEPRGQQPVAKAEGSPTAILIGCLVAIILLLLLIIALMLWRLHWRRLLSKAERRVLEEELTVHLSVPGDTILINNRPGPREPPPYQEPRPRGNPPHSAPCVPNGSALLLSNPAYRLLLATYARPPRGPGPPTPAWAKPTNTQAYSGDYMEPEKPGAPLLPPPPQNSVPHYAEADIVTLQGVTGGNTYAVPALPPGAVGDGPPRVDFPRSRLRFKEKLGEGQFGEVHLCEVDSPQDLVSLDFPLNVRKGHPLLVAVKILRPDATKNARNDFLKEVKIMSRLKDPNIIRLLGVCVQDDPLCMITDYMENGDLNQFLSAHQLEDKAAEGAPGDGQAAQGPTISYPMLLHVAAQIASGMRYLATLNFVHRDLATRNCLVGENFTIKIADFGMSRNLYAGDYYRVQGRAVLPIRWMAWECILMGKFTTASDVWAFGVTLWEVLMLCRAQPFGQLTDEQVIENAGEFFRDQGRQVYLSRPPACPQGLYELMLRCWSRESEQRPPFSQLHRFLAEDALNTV

# count of solved cases: 3
INSERT INTO results (line_notation, result) VALUES
  ('O=C(Nc1ccc(F)c(C(F)(F)F)c1)c1csc2c1CCN(Cc1cncnc1)C2', '0.05 to 0.08 µM'),
  ('Nc1nccnc1CN1CCc2c(C(=O)Nc3cc(F)cc(C(F)(F)F)c3)csc2C1', '< 0.025 µM'),
  ('COc1cncc(CN2CCc3c(C(=O)Nc4cccc(C(F)(F)F)c4)csc3C2)c1', '< 0.025 µM');

Lab note: next molecule to report on.
Prompt: # lookup: IC50 of `Nc1nccnc1CN1CCc2c(C(=O)Nc3cncc(C(F)(F)F)c3)csc2C1`
Response: < 0.025 µM

* * *

Catalogue of pKi readings, one per entry.
# target.of.assay: DDR2 (Homo sapiens (Human), UniProt Q16832)
# experiment.summary: DDR2 binding assay (LanthaScreen Europium Kinase Binding assay)
# condition.description: potency class, read-out: Ki DDR2
pKi: −log10 of the molar value.

# count of solved cases: 10
INSERT INTO results (line_notation, endpoint_name, result) VALUES
  ('O=C(Nc1cccc(C(F)(F)F)c1)c1csc2c1CCN(Cc1cncc(C(F)(F)F)c1)C2', 'pKi', '> 7.60'),
  ('O=C(Nc1cccc(C(F)(F)F)c1)c1csc2c1CCN(Cc1cncc(N3CCS(=O)(=O)CC3)c1)C2', 'pKi', '> 7.60'),
  ('CN1CCN(Cc2cc(NC(=O)c3csc4c3CCN(Cc3cccnc3)C4)cc(C(F)(F)F)c2)CC1', 'pKi', '7.30 to 7.60'),
  ('CN(C)Cc1cc(NC(=O)c2csc3c2CCN(Cc2cnc(N)nc2)C3)cc(C(F)(F)F)n1', 'pKi', '7.30 to 7.60'),
  ('Cc1cn(-c2cc(NC(=O)c3csc4c3CCN(Cc3cncnc3)C4)cc(C(F)(F)F)c2)cn1', 'pKi', '> 7.60'),
  ('Cn1nc(C(C)(C)C)cc1NC(=O)c1csc2c1CCN(Cc1cnc(N)nc1)C2', 'pKi', '7.30 to 7.60'),
  ('O=C(Nc1cncc(C(F)(F)F)c1)c1csc2c1CCN(Cc1cccnc1)C2', 'pKi', '> 7.60'),
  ('CNc1ncc(CN2CCc3c(C(=O)Nc4cc(F)cc(C(F)(F)F)c4)csc3C2)cn1', 'pKi', '> 7.60'),
  ('CNc1ccc(CN2CCc3c(C(=O)Nc4cc(F)cc(C(F)(F)F)c4)csc3C2)cn1', 'pKi', '> 7.60'),
  ('CC(C)(c1cc(NC(=O)c2csc3c2CCN(Cc2cnc(N)nc2)C3)no1)C(F)(F)F', 'pKi', '> 7.60');

Lab note: next molecule to report on.
Prompt: # lookup: pKi of `Nc1ncccc1CN1CCc2c(C(=O)Nc3cc(F)cc(C(F)(F)F)c3)csc2C1`
Response: > 7.60

* * *

Catalogue of IC50 readings, one per entry.
# target.of.assay: DDR1 (Homo sapiens (Human))

# count of solved cases: 2
INSERT INTO results (compound, target_of_assay, result) VALUES
  ('COc1ncncc1CN1CCc2c(C(=O)Nc3cc(CN4CC[C@@H](N(C)C)C4)cc(C(F)(F)F)c3)csc2C1 [Example 52]', 'DDR1 (Homo sapiens (Human))', '50 to 80 nM'),
  ('O=C(Nc1cc(F)cc(C(F)(F)F)c1)c1csc2c1CCN(Cc1cncnc1)C2 [Example 4]', 'DDR1 (Homo sapiens (Human))', '< 25 nM');

Prompt: What reported IC50 corresponds to CN(C)[C@@H]1CCN(Cc2cc(NC(=O)c3csc4c3CCN(Cc3cnc(N)nc3)C4)cc(C(F)(F)F)c2)C1 [Example 50] on DDR1 (Homo sapiens (Human))?
Response: 25 to 50 nM

Prompt: What reported IC50 corresponds to CC(C)(c1cc(NC(=O)c2csc3c2CCN(Cc2cncnc2)C3)no1)C(F)(F)F [Example 6] on DDR1 (Homo sapiens (Human))?
Response: 25 to 50 nM

Prompt: What reported IC50 corresponds to COc1cncc(CN2CCc3c(C(=O)Nc4cncc(C(F)(F)F)c4)csc3C2)c1 [Example 32] on DDR1 (Homo sapiens (Human))?
Response: < 25 nM

Prompt: What reported IC50 corresponds to Nc1ncccc1CN1CCc2c(C(=O)Nc3cc(F)cc(C(F)(F)F)c3)csc2C1 [Example 43] on DDR1 (Homo sapiens (Human))?
Response: < 25 nM

* * *

Entries below carry reported IC50 on DDR1 (Homo sapiens (Human)).

INSERT INTO measurements (line_notation, endpoint_name, result) VALUES
  ('CN(C)[C@@H]1CCN(Cc2cc(NC(=O)c3csc4c3CCN(Cc3cncnc3C(C)(C)F)C4)cc(C(F)(F)F)c2)C1', 'IC50', '50 to 80 nM'),
  ('N#Cc1cc(NC(=O)c2csc3c2CCN(Cc2cnc(N)nc2)C3)cc(C(F)(F)F)c1', 'IC50', '< 25 nM');

Lab note: next molecule to report on.
Prompt: # lookup: IC50 of `COc1cncc(CN2CCc3c(C(=O)Nc4cc(C(C)(C)C)no4)csc3C2)c1`
Response: 25 to 50 nM
